Cited source: patent US9637453B2

Answer each item with its documented pIC50.
Target: Full length human recombinant HDAC11 (Homo sapiens)
Construct: Full length human recombinant HDAC6 and HDAC11 proteins were expressed in baculoviral system
Sequence (Q96DB2 whole entry): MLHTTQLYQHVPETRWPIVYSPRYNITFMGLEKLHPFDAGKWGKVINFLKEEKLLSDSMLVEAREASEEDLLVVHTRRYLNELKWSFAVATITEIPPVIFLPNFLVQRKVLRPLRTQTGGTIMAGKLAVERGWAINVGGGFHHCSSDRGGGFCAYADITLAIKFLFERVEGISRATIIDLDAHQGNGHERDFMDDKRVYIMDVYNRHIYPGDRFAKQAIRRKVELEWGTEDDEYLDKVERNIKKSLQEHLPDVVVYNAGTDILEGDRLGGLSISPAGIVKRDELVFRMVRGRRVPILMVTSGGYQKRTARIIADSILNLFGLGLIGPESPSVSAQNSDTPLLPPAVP
Assay: In vitro histone deacetylase assay, enzymatic HDAC11 (electrophoretic mobility shift assay)
Details: 10 nM HDAC11; 2 μM peptide substrate FAM-RHKK(tri-fluor-Ac)—NH2; 25° C.; 12 concentrations; read-out: HDAC11 Activity Range (IC50)
pIC50: −log10 of the molar value.

API: value(readout= pIC50, system= Full length human recombinant HDAC11 (Homo sapiens), query= COc1ccc(CN2CC[C@@]3(CCc4ccc(C(=O)NO)cc4C3)C2=O)cc1 [Compound I-75] ) < 6.30

And O=C(NO)c1ccc2c(c1)C[C@]1(CC2)CCN(c2ccccc2)C1 [Compound I-17] ? < 6.30

And O=C(NO)c1ccc2c(c1)C[C@]1(CC2)CCN(Cc2ccccc2)C1=O [Compound I-36] ? 6.30 to 7.00

And O=C(NO)c1ccc2c(c1)C[C@@]1(CC2)CCN(Cc2ccc3nonc3c2)C1=O [Compound I-63] ? < 6.30

###

Answer each item with its documented IC50.
Molecular target: Full length human recombinant HDAC6 (Homo sapiens)
Construct: Full length human recombinant HDAC6 and HDAC11 proteins were expressed in baculoviral system
Sequence (Q9UBN7 1-1215): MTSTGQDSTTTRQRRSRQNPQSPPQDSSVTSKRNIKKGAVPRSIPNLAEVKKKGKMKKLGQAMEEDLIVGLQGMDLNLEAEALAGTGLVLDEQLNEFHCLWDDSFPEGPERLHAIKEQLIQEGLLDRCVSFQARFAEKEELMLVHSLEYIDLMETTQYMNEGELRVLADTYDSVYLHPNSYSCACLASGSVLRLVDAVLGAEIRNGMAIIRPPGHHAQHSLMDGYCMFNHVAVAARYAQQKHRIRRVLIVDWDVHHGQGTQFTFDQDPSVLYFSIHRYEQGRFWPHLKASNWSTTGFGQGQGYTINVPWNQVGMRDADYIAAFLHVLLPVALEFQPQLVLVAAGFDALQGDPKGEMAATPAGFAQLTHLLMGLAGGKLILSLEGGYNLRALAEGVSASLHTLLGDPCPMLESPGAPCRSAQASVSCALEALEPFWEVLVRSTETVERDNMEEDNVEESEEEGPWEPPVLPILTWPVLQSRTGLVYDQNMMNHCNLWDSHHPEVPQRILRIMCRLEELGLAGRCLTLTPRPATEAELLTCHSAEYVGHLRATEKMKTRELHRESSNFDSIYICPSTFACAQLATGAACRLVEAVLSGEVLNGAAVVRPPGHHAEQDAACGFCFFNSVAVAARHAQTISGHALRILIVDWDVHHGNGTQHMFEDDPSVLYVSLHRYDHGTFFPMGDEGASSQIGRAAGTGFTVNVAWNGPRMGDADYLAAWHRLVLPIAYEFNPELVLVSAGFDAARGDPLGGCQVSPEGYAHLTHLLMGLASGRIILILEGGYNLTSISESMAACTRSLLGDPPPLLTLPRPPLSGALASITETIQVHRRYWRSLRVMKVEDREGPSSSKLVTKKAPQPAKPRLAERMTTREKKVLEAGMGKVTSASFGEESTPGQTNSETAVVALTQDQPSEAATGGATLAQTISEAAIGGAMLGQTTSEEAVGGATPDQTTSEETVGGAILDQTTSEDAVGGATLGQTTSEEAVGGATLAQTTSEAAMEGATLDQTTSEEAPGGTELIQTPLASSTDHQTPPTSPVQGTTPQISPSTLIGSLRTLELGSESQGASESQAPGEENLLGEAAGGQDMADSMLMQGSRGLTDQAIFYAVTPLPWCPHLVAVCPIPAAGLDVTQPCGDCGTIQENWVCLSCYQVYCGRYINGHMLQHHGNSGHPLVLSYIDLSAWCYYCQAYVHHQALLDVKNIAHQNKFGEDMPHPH
Experiment: In vitro histone deacetylase assay, enzymatic HDAC6 (electrophoretic mobility shift assay)
Conditions: 1 nM HDAC6; 2 μM peptide substrate FAM-RHKK(Ac)—NH2; 25° C.; 12 concentrations; read-out: HDAC6 Activity Range (IC50)
Procedure: The enzymatic HDAC6 and HDAC11 assays were performed using electrophoretic mobility shift assay. Full length human recombinant HDAC6 and HDAC11 proteins were expressed in baculoviral system and purified by affinity chromatography. […] The terminated assay plates were analyzed on LabChip® 3000 microfluidic electrophoresis instrument (Perkin Elmer/Caliper Life Sciences). The fluorescence intensity of the electrophoretically separated de-acetylated product and substrate peptide was measured. […]

What measured IC50 goes with Cc1ccc(N2CC[C@@]3(CCc4ccc(C(=O)NO)cc4C3)C2=O)c(C)c1 [Compound I-113] ? ≤ 100 nM

And O=C(NO)c1ccc2c(c1)OC1(CC2)CCN(C2CCCCC2)CC1 [II-6] ? 100 to 500 nM

And O=C(NO)c1ccc2c(c1)C[C@]1(CC2)CCN(Cc2cccc(Cl)c2)C1=O [Compound I-101] ? ≤ 100 nM

And O=C(NO)c1ccc2c(c1)C[C@@]1(CC2)CCN(CC2CCC2)C1=O [Compound I-53] ? ≤ 100 nM

And CN1C[C@@]2(CCc3ccc(C(=O)NO)cc3C2)CC1=O [Compound I-130] ? ≤ 100 nM
